tested on: OVCAR-4 ovarian; experiment: NCI-60 one-dose screen, 48 h (100 = growth as untreated, 0 = no growth, -100 = all killed); conditions: 10 µM unless noted
This is part of a sample that, as a whole, favours compounds with a hit. Of some 83,000 tested, about 20% had one in any assay.
Tick yes if growth is 30% or greater. Tick no if growth is less than 30%.

{"columns": ["compound", "tested-system", "label"],
 "data": [
  ["Nc1ncc(-c2ccc3ncnc(N4CCc5ccc(Cl)cc54)c3c2)cn1", "OVCAR-4 ovarian", "no"],
  ["Cc1cc2nc(C(Cl)Cl)nc(-c3ccccc3)n2n1", "OVCAR-4 ovarian", "yes"],
  ["CCOC(=O)/C(=C\\c1ccccc1Cl)P(=O)(OCC)OCC", "OVCAR-4 ovarian", "yes"],
  ["CC/C(=C(/c1ccc(Cl)cc1)c1ccc(OCCN2CCCC2)cc1)c1ccccc1", "OVCAR-4 ovarian", "yes"],
  ["C=C(CNCCO)[C@@H]1CC[C@]2(CO)CC[C@]3(C)[C@H](CC[C@@H]4[C@@]5(C)CCC(NCCO)C(C)(C)[C@@H]5CC[C@]43C)[C@@H]12 (stereo partly drawn)", "OVCAR-4 ovarian", "yes"],
  ["CCN1CCN(CCOc2ccc(CNc3ccc4nc(CCC5CCCCC5)[nH]c4c3)cc2)CC1", "OVCAR-4 ovarian", "yes"],
  ["O=C1CCc2c(sc3[nH]c(=S)n(-c4cc(C(F)(F)F)cc(C(F)(F)F)c4)c(=O)c23)C1", "OVCAR-4 ovarian", "no"],
  ["Cc1nc2ccccc2c(/C=C/c2ccc(Br)cc2)c1C(=O)/C=C/c1ccccc1", "OVCAR-4 ovarian", "no"]
]}
